Tested on: Solanum nigrum (SOLNI)
Test: Post-emergence glasshouse herbicide test, Solanum nigrum
Format: in vivo
Conditions: 1000 g/h, evaluated after 13 days, five point scale
measurement_kind: percentage damage caused to the plant, POST Application SOLNI

- CCn1nnnc1NC(=O)c1nn2cnn(-c3ccc(F)cc3)c2nc1=O: 5 (5=80-100%)
- Cn1nnnc1NC(=O)c1nn2cnn(CCCC(F)(F)F)c2nc1=O: 4 (4=60-79%)
- Cc1ccccc1-n1ncn2nc(C(=O)Nc3nnnn3C)c(=O)nc12: 5 (5=80-100%)
- Cc1cccc(-n2ncn3nc(C(=O)Nc4nnnn4C)c(=O)nc23)c1: 5 (5=80-100%)
- O=C(Nc1nnnn1-c1ccccc1)c1nn2cnn(-c3ccccc3)c2nc1=O: 5 (5=80-100%)
- CCCn1nnnc1NC(=O)c1nn2cnn(-c3ccc(F)cc3)c2nc1=O: 5 (5=80-100%)
- CCCn1nnnc1NC(=O)c1nn2cnn(-c3cccc(OC)c3)c2nc1=O: 5 (5=80-100%)
- CCCn1ncn2nc(C(=O)Nc3nnnn3C)c(=O)nc12: 5 (5=80-100%)
- COc1ccc(-n2ncn3nc(C(=O)Nc4nnnn4C)c(=O)nc23)cc1: 5 (5=80-100%)
- Cn1nnnc1NC(=O)c1nn2cnn(-c3ccc(C(F)(F)F)cc3)c2nc1=O: 5 (5=80-100%)
- CCCCn1nnnc1NC(=O)c1nn2cnn(-c3ccc(OC)cc3)c2nc1=O: 5 (5=80-100%)
- CCn1nnnc1NC(=O)c1nn2cnn(-c3ccc(OC)cc3)c2nc1=O: 5 (5=80-100%)
- Cn1nnnc1NC(=O)c1nn2cnn(-c3cccc(Cl)c3)c2nc1=O: 5 (5=80-100%)
- CCCn1nnnc1NC(=O)c1nn2cnn(CCC)c2nc1=O: 5 (5=80-100%)
- CCn1nnnc1NC(=O)c1nn2cnn(-c3ccc(C(F)(F)F)cc3)c2nc1=O: 5 (5=80-100%)
- CCn1nnnc1NC(=O)c1nn2cnn(-c3cccc(Cl)c3)c2nc1=O: 5 (5=80-100%)
- COc1cccc(-n2ncn3nc(C(=O)C4C(=O)CCCC4=O)c(=O)nc23)c1: 5 (5=80-100%)
- CCCn1nnnc1NC(=O)c1nn2cnn(-c3ccc(C(F)(F)F)cc3)c2nc1=O: 5 (5=80-100%)
